The reported measurements were obtained from paper PMC7046147.

molecular target: PAX6 PD G73D (human, UniProt P26367 4-136, G73D); test: ITC; ITC (iTC200) at 25 °C in buffer C (composition not given; protein stored in 25 mM Hepes pH 7.5, 150 mM NaCl, 5 mM b-ME); 20 uM protein in cell, 200 uM DNA in syringe, one-site model; settings: protein: recombinant; blunt
Sequence (P26367 4-136 G73D): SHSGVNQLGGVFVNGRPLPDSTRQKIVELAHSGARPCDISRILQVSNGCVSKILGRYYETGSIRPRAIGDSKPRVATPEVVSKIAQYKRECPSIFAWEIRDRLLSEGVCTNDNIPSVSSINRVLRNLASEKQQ
metric-name: pKd
Note on pKd: it is the negative log10 of concentration, concentration in mol/L.

Ask | # input binder: P6CON (dsDNA) DNA 1: AAATTTTCACGCTTGAGTTCACAGCT DNA 2: AGCTGTGAACTCAAGCGTGAAAATTT ; wanted: its pKd
Reply | 6.02
